test: Cytotoxicity in naive mouse peritoneal macrophages (CellTiter-Glo); format: cell-based; details: read-out: CC50 (toxicity in peritoneal macrophages)
recordedEndpoint: CC50 at 24 h (nM)
Please reply with the bare figure in nM and do not write the unit itself.

CC50 at 24 h reading for CN1CCCC(n2nc(Cc3ccc(Cl)cc3)c3ccccc3c2=O)CC1 (stereo not shown) [Azelastine] : 950

----------
system: L. major; assay: L. major ex vivo lymph node explant culture (EVC), luminometry; assay type: cell-based, Leishmania major; conditions: 48 h at 34°C, luminescence, listed as mequitazine
recordedEndpoint: EC50

Measured EC50 for this entry c1ccc2c(c1)Sc1ccccc1N2CC1CN2CCC1CC2 (stereo not shown) on L. major: < 10 µM
